Test system: MDA-MB-435 melanoma
Experiment: NCI-60 one-dose screen, 48 h
Conditions: 10 µM
Procedure: Growth inhibition of the MDA-MB-435 human Melanoma tumor cell line is measured as a screen for anti-cancer activity. Cells are grown in 96 well plates and exposed to the test compound for 48 hours. Compounds are tested at a single concentration, which is 10^-5 M for most compounds. The reported endpoint is percent growth (GI% or GIPRCNT), where numbers from 0 - 100% represent growth inhibition, and numbers from -100% - 0 represent cell death. […]
About 83,000 compounds went through this panel and 20% of them were active in at least one assay; those are over-represented in the sample as a whole. Activity calls are given as the source filed them. The calls were made as follows: active = growth percent below 10; inactive = the rest.
Choose the fitting class; nothing outside active, inactive is accepted.

COC(=O)c1c[nH]c2cc(OC(C)C)c(OC(C)C)cc2c1=O ... inactive
COc1cccc(N=Nc2cccc(OC)c2)c1 ... inactive
CCCCN(CCCC)C(=O)[C@H](CC)[C@@H]1CC[C@@H](C)[C@@H]([C@H](C)[C@@H](O)[C@@H](C)C(=O)[C@H](CC)C2O[C@]3(C=CC(=O)[C@]4(CC[C@@](C)([C@H]5CC[C@](O)(CC)[C@H](C)O5)O4)O3)[C@H](C)C[C@@H]2C)O1 (stereo not given in full) ... inactive
COc1ccc(-c2nn(-c3cccc(Cl)c3)cc2-c2c(C#N)c(=O)n3[nH]c(-c4ccccc4)nc3c2C#N)cc1 ... inactive
N#Cc1c(N)nc(-c2cc(F)cc(C(F)(F)F)c2)nc1-c1ccccc1F ... inactive

Problem: Per the records of this test, what outcome belongs to CC(C)(C)OC(=O)N1CCc2c(sc3ncnc(N/N=C/c4cccc5ccccc45)c23)C1 ?
Solution: active

Problem: Per the records of this test, what outcome belongs to COc1ccc(/C=C2/SC(=S)NC2=O)c(OC)c1OC ?
Solution: inactive

Problem: Per the records of this test, what outcome belongs to S=c1cnc2ccccc2[nH]1 ?
Solution: inactive

Problem: Per the records of this test, what outcome belongs to CCn1c2ccc(O)cc2c2c(C)c3c[n+](C)ccc3c(C)c21 ?
Solution: inactive

Problem: Per the records of this test, what outcome belongs to CCCc1cn(CC(=O)Nc2nc3ccccc3s2)nn1 ?
Solution: inactive

====

Test system: SNB-19 CNS
Assay: NCI-60 one-dose screen, 48 h (100 = growth as untreated, 0 = no growth, -100 = all killed)
Conditions: 10 µM
About 83,000 compounds went through this panel and 20% of them were active in at least one assay; those are over-represented in the sample as a whole.
Quantity: growth (%)
Your answer should be a plain number; it is taken to be in %.

CCOC(=O)C(C)(c1ccccc1)c1ccccc1 ... 99.3
Nc1c(Br)cc(Br)c2c1[nH]c(=O)c1ccccc12 ... 94.1
CCCCCCCCCCOC(c1ccccc1)c1ccccc1 ... 96
CC(=O)Oc1cc(OC(C)=O)c2ccccc2c1OC(C)=O ... 93.8
COc1ccc(C2=Cn3c(CCC(=O)c4nc5ccccc5[nH]4)nnc3SC2)cc1 ... 113

Problem: Query: growth; subject: NNC(=O)Oc1c(Cl)cc(Cl)cc1[N+](=O)[O-]
Solution: 106

Problem: Query: growth; subject: COc1ccc(C2CC(c3cccs3)=NN2c2ccc(S(N)(=O)=O)cc2)cc1 (stereo not given)
Solution: 77.4

Problem: Query: growth; subject: COc1ccc(-c2nn(-c3cccc(Cl)c3)cc2-c2c(C#N)c(=O)n3[nH]c(-c4ccccc4)nc3c2C#N)cc1
Solution: 90.9

Problem: Query: growth; subject: O=C(CCCCC(=O)Oc1c(Cl)cc(Cl)cc1[N+](=O)[O-])Oc1c(Cl)cc(Cl)cc1[N+](=O)[O-]
Solution: 105

Problem: Query: growth; subject: OC(CNc1ccnc2cc(Cl)ccc12)CNC1CCCCC1 (stereo not given)
Solution: 100
